GI50 values by entry
System: LOX IMVI
ASSAY_OVERVIEW: NCI tumour cell line growth inhibition, 48 h
The source made the active and inactive calls. No stated cut-off is given here; in the data, active = GI50 up to about 1.1 µM and inactive = higher.
QUANTITY: GI50

>>> print(df.to_string())
                                   molecule  tested_system               result
0     NS(=O)(=O)c1nn2c(Br)c(-c3ccccc3)nc2s1       LOX IMVI   1.95 µM (inactive)
1      O=C1NC(N2CCOCC2)=N/C1=C\c1ccc(Cl)cc1       LOX IMVI  > 100 µM (inactive)
2  CCOC(=O)c1cc2c(C(=O)c3ccc([N+](=O)[O-])cc3)c(C(C)=O)ccc2[nH]1       LOX IMVI   99.8 µM (inactive)
3  Nc1ccc(S(=O)(=O)c2ccc(NCN3C(=O)NC(=O)C(=O)C3=O)cc2)cc1 [ALLANTODAPSONE]       LOX IMVI  > 100 µM (inactive)
4  CN1CC(=O)N2Cc3ccccc3-n3cccc3C2C1 (stereo not given)       LOX IMVI  > 100 µM (inactive)
5  CC(=O)Nc1ccc(/C=C2\N=C(c3ccccc3)OC2=O)cc1       LOX IMVI   80.2 µM (inactive)
6     O=c1c2ccccc2[nH]c2ccc3c(Cl)n[nH]c3c12       LOX IMVI   20.8 µM (inactive)
7  COc1ccc(C[C@H]2COC(=O)[C@@H]2Cc2cccc(Br)c2)cc1OC       LOX IMVI   3.85 µM (inactive)
8  COc1ccc(-n2c3c(c4c(CN(C)C)c(O)ccc42)C(=O)c2ccccc2C3=O)cc1       LOX IMVI   2.49 µM (inactive)
9  CC(=O)N1c2ccccc2C2=CC3C4C(=O)N(c5ccccc5)C(=O)C4C21C1C(=O)N(c2ccccc2)C(=O)C31 (stereo not given)       LOX IMVI   43.9 µM (inactive)
